src = patent US9120851B2

# Target or system: T1, hANGPTL4(26-406)-His (Homo sapiens, UniProt Q9BY76)
# T1 construct: purchased R&D Systems
# T1 sequence (Q9BY76 26-406): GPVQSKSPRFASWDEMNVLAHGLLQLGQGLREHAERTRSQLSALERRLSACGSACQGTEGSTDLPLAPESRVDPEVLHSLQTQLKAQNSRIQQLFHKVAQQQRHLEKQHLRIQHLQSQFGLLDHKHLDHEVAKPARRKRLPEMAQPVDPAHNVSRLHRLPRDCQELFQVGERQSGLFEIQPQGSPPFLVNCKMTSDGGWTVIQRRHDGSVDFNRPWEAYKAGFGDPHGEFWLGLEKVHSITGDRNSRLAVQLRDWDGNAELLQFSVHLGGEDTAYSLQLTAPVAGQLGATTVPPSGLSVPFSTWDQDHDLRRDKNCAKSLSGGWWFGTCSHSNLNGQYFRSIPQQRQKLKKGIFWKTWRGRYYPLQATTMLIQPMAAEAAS
# Measurement description: BIACORE, full mAb or Fab over amino-coupled hANGPTL4(26-406)-His
# Assay type: binding
# Details: pH 5.75, 25° C.
Parameter: ka (M⁻¹ s⁻¹)
Numbers only, in M⁻¹ s⁻¹.

- Molecule: "H1H284P: anti-hANGPTL4 antibody, hIgG1 isotype, HCVR/LCVR SEQ ID NOs 90/92 (antibody, V domains shown) VH: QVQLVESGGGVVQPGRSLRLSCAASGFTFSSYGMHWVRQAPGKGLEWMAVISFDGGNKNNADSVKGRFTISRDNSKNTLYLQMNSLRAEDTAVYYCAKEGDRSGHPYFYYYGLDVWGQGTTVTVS VL: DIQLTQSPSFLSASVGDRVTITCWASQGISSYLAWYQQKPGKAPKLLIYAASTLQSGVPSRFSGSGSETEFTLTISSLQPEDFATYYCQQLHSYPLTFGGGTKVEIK"
  ka, M⁻¹ s⁻¹: "1.93e+06"
- Molecule: "H1H284P Fab: Fab fragment of H1H284P prepared by papain digestion (antibody, V domains shown) VH: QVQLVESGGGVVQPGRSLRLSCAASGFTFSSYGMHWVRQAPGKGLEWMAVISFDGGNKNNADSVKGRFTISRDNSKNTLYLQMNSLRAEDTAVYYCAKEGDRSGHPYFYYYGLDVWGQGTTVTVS VL: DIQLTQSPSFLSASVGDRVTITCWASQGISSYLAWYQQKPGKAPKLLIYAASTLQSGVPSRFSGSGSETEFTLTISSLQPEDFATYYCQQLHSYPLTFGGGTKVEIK"
  ka, M⁻¹ s⁻¹: "1.21e+06"
- Molecule: "H1H268P Fab: Fab fragment of H1H268P prepared by papain digestion (antibody, V domains shown) VH: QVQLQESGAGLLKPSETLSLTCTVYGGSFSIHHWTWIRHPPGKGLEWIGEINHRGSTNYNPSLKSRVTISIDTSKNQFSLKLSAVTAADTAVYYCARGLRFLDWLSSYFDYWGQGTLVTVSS VL: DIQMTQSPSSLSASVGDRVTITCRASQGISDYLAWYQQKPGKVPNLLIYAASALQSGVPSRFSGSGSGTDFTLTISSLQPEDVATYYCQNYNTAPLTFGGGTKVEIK"
  ka, M⁻¹ s⁻¹: 444000

Provide ka value for the following molecule: H1H268P: anti-hANGPTL4 antibody, hIgG1 isotype, HCVR/LCVR SEQ ID NOs 42/44 (antibody, V domains shown) VH: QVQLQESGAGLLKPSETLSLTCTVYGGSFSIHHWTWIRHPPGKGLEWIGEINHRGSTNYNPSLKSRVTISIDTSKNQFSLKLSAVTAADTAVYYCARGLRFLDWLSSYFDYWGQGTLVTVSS VL: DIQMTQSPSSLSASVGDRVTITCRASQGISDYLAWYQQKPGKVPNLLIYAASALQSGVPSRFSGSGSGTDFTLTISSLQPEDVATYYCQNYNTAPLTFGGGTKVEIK
923000
